- Assay Name: Particle Size Distribution (PSD) by Laser Diffraction Spectrometry (Malvern Mastersizer 2000)
- Assay type: physicochemical
- Experimental Context: sample in heptane with 0.2% Span-20, by volume
- Protocol: Laser Diffraction Spectrometry (LDS) was used to determine the Particle Size Distribution (PSD). The samples were prepared by mixing 100 mg of asenapine maleate with 5 mL of heptane that contains 0.2% of Span-20. Ultrasonic treatment of the samples was performed for 5 minutes and the PSD was analysed using a particle size analyzer Malvern Mastersizer 2000. Refractive index of asenapine 1.800 and absorption 0.01.
Where a name gives a salt, the structure may show the parent alone.
Short version: PSD d90 at least 30 μm is true, less is false.

Ask: Textbook exercise: given the entry CN1C[C@@H]2c3ccccc3Oc3ccc(Cl)cc3[C@H]2C1 (racemic) [Example 5, asenapine maleate] , state whether its PSD d90 is greater than or equal to 30 μm.
Reply: false

Ask: Textbook exercise: given the entry CN1C[C@@H]2c3ccccc3Oc3ccc(Cl)cc3[C@H]2C1 (racemic) [Example 7, asenapine maleate] , state whether its PSD d90 is greater than or equal to 30 μm.
Reply: true

Ask: Textbook exercise: given the entry CN1C[C@@H]2c3ccccc3Oc3ccc(Cl)cc3[C@H]2C1 (racemic) [Example 8, asenapine maleate] , state whether its PSD d90 is greater than or equal to 30 μm.
Reply: true

Ask: Textbook exercise: given the entry CN1C[C@@H]2c3ccccc3Oc3ccc(Cl)cc3[C@H]2C1 (racemic) [Example 6, asenapine maleate] , state whether its PSD d90 is greater than or equal to 30 μm.
Reply: true

Ask: Textbook exercise: given the entry CN1C[C@@H]2c3ccccc3Oc3ccc(Cl)cc3[C@H]2C1 (racemic) [Example 13, asenapine maleate] , state whether its PSD d90 is greater than or equal to 30 μm.
Reply: true

Ask: Textbook exercise: given the entry CN1C[C@@H]2c3ccccc3Oc3ccc(Cl)cc3[C@H]2C1 (racemic) [Example 12, asenapine maleate] , state whether its PSD d90 is greater than or equal to 30 μm.
Reply: true

Ask: Textbook exercise: given the entry CN1C[C@@H]2c3ccccc3Oc3ccc(Cl)cc3[C@H]2C1 (racemic) [Example 3, asenapine maleate] , state whether its PSD d90 is greater than or equal to 30 μm.
Reply: true

Ask: Textbook exercise: given the entry CN1C[C@@H]2c3ccccc3Oc3ccc(Cl)cc3[C@H]2C1 (racemic) [Example 2, asenapine maleate] , state whether its PSD d90 is greater than or equal to 30 μm.
Reply: false

Ask: Textbook exercise: given the entry CN1C[C@@H]2c3ccccc3Oc3ccc(Cl)cc3[C@H]2C1 (racemic) [Example 9, asenapine maleate] , state whether its PSD d90 is greater than or equal to 30 μm.
Reply: false

Ask: Textbook exercise: given the entry CN1C[C@@H]2c3ccccc3Oc3ccc(Cl)cc3[C@H]2C1 (racemic) [Example 10, asenapine maleate] , state whether its PSD d90 is greater than or equal to 30 μm.
Reply: true

Ask: Textbook exercise: given the entry CN1C[C@@H]2c3ccccc3Oc3ccc(Cl)cc3[C@H]2C1 (racemic) [Example 1, asenapine maleate] , state whether its PSD d90 is greater than or equal to 30 μm.
Reply: false

Ask: Textbook exercise: given the entry CN1C[C@@H]2c3ccccc3Oc3ccc(Cl)cc3[C@H]2C1 (racemic) [Example 11, asenapine maleate] , state whether its PSD d90 is greater than or equal to 30 μm.
Reply: false

Ask: Textbook exercise: given the entry CN1C[C@@H]2c3ccccc3Oc3ccc(Cl)cc3[C@H]2C1 (racemic) [Example 4, asenapine maleate] , state whether its PSD d90 is greater than or equal to 30 μm.
Reply: false

* * *

- Assay Name: Particle Size Distribution (PSD) by Laser Diffraction Spectrometry (Malvern Mastersizer 2000)
- Format: physicochemical
- Experimental Context: sample in heptane with 0.2% Span-20, by volume
Where a name gives a salt, the structure may show the parent alone.
Listed next: entries and their corresponding PSD d95.
Number only, in μm; omit the unit.

[[record]]
compound = "CN1C[C@@H]2c3ccccc3Oc3ccc(Cl)cc3[C@H]2C1 (racemic) [Example 10, asenapine maleate]"
test_readout = "PSD d95"
units_symbol = "μm"
readout_value = 49

[[record]]
compound = "CN1C[C@@H]2c3ccccc3Oc3ccc(Cl)cc3[C@H]2C1 (racemic) [Example 12, asenapine maleate]"
test_readout = "PSD d95"
units_symbol = "μm"
readout_value = 120

[[record]]
compound = "CN1C[C@@H]2c3ccccc3Oc3ccc(Cl)cc3[C@H]2C1 (racemic) [Example 11, asenapine maleate]"
test_readout = "PSD d95"
units_symbol = "μm"
readout_value = 21

[[record]]
compound = "CN1C[C@@H]2c3ccccc3Oc3ccc(Cl)cc3[C@H]2C1 (racemic) [Example 4, asenapine maleate]"
test_readout = "PSD d95"
units_symbol = "μm"
readout_value = 28

[[record]]
compound = "CN1C[C@@H]2c3ccccc3Oc3ccc(Cl)cc3[C@H]2C1 (racemic) [Example 6, asenapine maleate]"
test_readout = "PSD d95"
units_symbol = "μm"
readout_value = 56

[[record]]
compound = "CN1C[C@@H]2c3ccccc3Oc3ccc(Cl)cc3[C@H]2C1 (racemic) [Example 8, asenapine maleate]"
test_readout = "PSD d95"
units_symbol = "μm"
readout_value = 68

[[record]]
compound = "CN1C[C@@H]2c3ccccc3Oc3ccc(Cl)cc3[C@H]2C1 (racemic) [Example 9, asenapine maleate]"
test_readout = "PSD d95"
units_symbol = "μm"
readout_value = 28

[[record]]
compound = "CN1C[C@@H]2c3ccccc3Oc3ccc(Cl)cc3[C@H]2C1 (racemic) [Example 13, asenapine maleate]"
test_readout = "PSD d95"
units_symbol = "μm"
readout_value = 38

[[record]]
compound = "CN1C[C@@H]2c3ccccc3Oc3ccc(Cl)cc3[C@H]2C1 (racemic) [Example 7, asenapine maleate]"
test_readout = "PSD d95"
units_symbol = "μm"
readout_value = 48

[[record]]
compound = "CN1C[C@@H]2c3ccccc3Oc3ccc(Cl)cc3[C@H]2C1 (racemic) [Example 5, asenapine maleate]"
test_readout = "PSD d95"
units_symbol = "μm"
readout_value = 35


Ask: What measured PSD d95 goes with CN1C[C@@H]2c3ccccc3Oc3ccc(Cl)cc3[C@H]2C1 (racemic) [Example 2, asenapine maleate] ?
Reply: 20

Ask: What measured PSD d95 goes with CN1C[C@@H]2c3ccccc3Oc3ccc(Cl)cc3[C@H]2C1 (racemic) [Example 1, asenapine maleate] ?
Reply: 24

Ask: What measured PSD d95 goes with CN1C[C@@H]2c3ccccc3Oc3ccc(Cl)cc3[C@H]2C1 (racemic) [Example 3, asenapine maleate] ?
Reply: 37
